System: HL-60
Test: Cytotoxicity against human HL-60 cells assessed as cell growth inhibition incubated for 72 hrs by CCK8 assay
Format: functional, cell-based
Conditions: HL-60, 72 h
pIC50: −log10 of the molar value.
REPORTED_ENDPOINT: pIC50

[[record]]
compound_structure = "C=C[C@@](C)(O)[C@@H]1C[C@H]2C(=CC[C@H]3C(C)(C)CCC[C@]23C)C(=O)O1"
assay_system = "HL-60"
value = 5.82

[[record]]
compound_structure = "C=C[C@@](C)(O)[C@H]1C[C@H]2C(=CC[C@H]3C(C)(C)CCC[C@]23C)C(=O)O1"
assay_system = "HL-60"
value = 5.55

[[record]]
compound_structure = "C=C[C@](C)(O)[C@H]1C[C@H]2C(=CC[C@H]3C(C)(C)CCC[C@]23C)C(=O)O1"
assay_system = "HL-60"
value = 5.59

[[record]]
compound_structure = "C=C[C@](C)(O)[C@@H]1C[C@H]2C(=CC[C@H]3C(C)(C)CCC[C@]23C)C(=O)O1"
assay_system = "HL-60"
value = 5.62

